Value source: PubChem BioAssay (EPA / NIEHS)

experiment: APR_HepG2_MitoMass_72hr: Apredica 72-hour HepG2 Assay for Mitochondrial Mass (AID 2282924); conditions: high-content imaging, actives raise or lower the signal;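 further: MitoTracker Red CMXRos stain intensity per cell imaged as mitochondrial mass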
Active and inactive are the calls of the source. How the source made its calls: active means hit-call score of the fitted dose curve at least 0.9, where 1 is the maximum; inactive means score below 0.9.
Give one outcome, nothing more. List: true = active, false = inactive

Example results:
# smilesStructure, group
records = [
    ("OC(Cn1cncn1)(Cn1cncn1)c1ccc(F)cc1F", "false"),
    ("c1ccc(C(O[C@@H]2CCCN(CCc3ccc4c(c3)OCO4)C2)c2ccccc2)cc1", "true"),
]

# evaluate next
## Task How did this test come out for O=C1CN(N=Cc2ccc([N+](=O)[O-])o2)C(=O)N1 ?
## Result true

* * *

experiment: ATG_GLI_CIS: Attagene CIS-FACTORIAL HepG2 Assay for human Zinc Finger Protein GLI1 (AID 2282945); conditions: HepG2, Attagene cis-factorial reporter mRNA, GLI element; actives raise or lower the signal
Calls of active or inactive are those of the source. How the source made its calls: active means hit-call score of the fitted dose curve at least 0.9, where 1 is the maximum; inactive means score below 0.9.
attributeMeasured: outcome

Answered cases to consult:
# compound, outcome
records = [
    ("CCOc1ccc2[nH]cc(C(=O)NCc3ccccc3)c(=O)c2n1", "inactive"),
    ("COc1cc(C(C)C)c2c(c1)S(=O)(=O)N(COc1cc(=O)n3cccc(OCCN4CCCCC4)c3n1)C2=O", "inactive"),
    ("FC(F)C(F)(F)COCC1CO1 (stereo not given)", "inactive"),
    ("Cc1nccn1-c1ccc(Sc2cccc(C3(C(N)=O)CCOCC3)c2)cc1", "inactive"),
    ("OCC(CO)(CO)CO", "inactive"),
    ("O=C(O)CO", "inactive"),
    ("CCCCCCCCN(C)C", "inactive"),
    ("COS(C)(=O)=O", "inactive"),
    ("OC(CCl)CCl", "inactive"),
]

Let's switch to this compound now.
## Task Dear colleague, please send me the reported outcome for CC(C)c1nnc2ccc(-c3ocnc3-c3cc(F)ccc3F)cn12 when you can.
## Result inactive

* * *

read-out: DNA damage-inducible transcript 3 (DDIT3), DDIT3 (gene 1649); assay: LTEA_HepaRG_DDIT3: Life Technologies and Expression Analysis (LTEA) Assay for DNA damage-inducible transcript 3 (DDIT3) using HepaRG (AID 2283488); details: mRNA level, 48 h; actives raise or lower the signal
The source made the active and inactive calls. The calls were made as follows: active = hit-call score of the fitted dose curve at least 0.9, where 1 is the maximum; inactive = score below 0.9.
Your answer must be one of the following: Y (active), N (inactive)

As a guide, the following entries are already answered.
# compound, group
records = [
    ("CCOC(N)=O", "N"),
    ("c1ccc2ncccc2c1", "N"),
    ("Cc1nccn1-c1ccc(Sc2cccc(C3(C(N)=O)CCOCC3)c2)cc1", "Y"),
    ("CCCCCOC(C)=O", "N"),
    ("OC(Cn1cncn1)(Cn1cncn1)c1ccc(F)cc1F", "N"),
]

## Task What was the test verdict on C[C@]12C=CC(=O)C=C1CC[C@H]1[C@@H]3C[C@@H](O)[C@](O)(C(=O)CO)[C@@]3(C)C[C@H](O)[C@@]12F ?
## Result N

## Task I'd appreciate the recorded outcome for OCC(CO)(CO)CO from this test.
## Result N

## Task Please indicate how the test categorized COCc1nnc(-c2ccc[n+]([O-])c2)n1-c1c(Cl)c(Cl)cc2[nH]c(=O)c(=O)[nH]c12 .
## Result N

## Task // outcome(item) with item = CCCOc1ccc(S(=O)(=O)N2CCN(CC)CC2)cc1-c1nc2c(CC)n(Cc3ccccn3)nc2c(=O)[nH]1
## Result Y

## Task Outcome logged for CNC(C)=O in this assay:
## Result N

## Task GET /call?item= CC1(C)C(=O)N(Cl)C(=O)N1Cl returns the recorded outcome of this test.
## Result N

## Task Outcome? O=C1CN(N=Cc2ccc([N+](=O)[O-])o2)C(=O)N1
## Result Y

## Task Test call for this compound, please: O=C(O)[C@H](O)[C@@H](O)C(=O)O
## Result N

## Task Please let me know the test result on file for OCc1ccccc1 .
## Result N

## Task Called result for CC(C)CC(C)O (centres undefined)
## Result N

## Task What did the test return for CCN(CC)C(=S)SSC(=S)N(CC)CC ?
## Result N

## Task Give the logged outcome of this assay for the following compound: CCCCCCCCN(C)C
## Result N

## Task Hi, sorry to bother you, what did the test record for CCCc1ccccc1 ?
## Result N

## Task Call for entry NC(N)=O :
## Result N

* * *

experiment: ATG_CMV_CIS: Attagene CIS-FACTORIAL HepG2 Assay for human CMV (Internal Marker) (AID 2282928); conditions: HepG2 CMV promoter reporter, transcription factor profiling; actives raise or lower the signal;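 further: endpoint acts as a background internal control marker rather than a target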
Active and inactive are the calls of the source. Rule for the calls: active = hit-call score of the fitted dose curve at least 0.9, where 1 is the maximum; inactive = score below 0.9.

# smilesStructure, outcome
records = [
    ("COS(C)(=O)=O", "inactive"),
    ("CCCOc1ccc(S(=O)(=O)N2CCN(CC)CC2)cc1-c1nc2c(CC)n(Cc3ccccn3)nc2c(=O)[nH]1", "inactive"),
    ("CCCCOC(=O)c1ccccc1", "inactive"),
]

* * *

Target: Hypoxia-inducible factor 1-alpha (Homo sapiens) (UniProt Q16665)
Sequence (Q16665 whole entry, looked up): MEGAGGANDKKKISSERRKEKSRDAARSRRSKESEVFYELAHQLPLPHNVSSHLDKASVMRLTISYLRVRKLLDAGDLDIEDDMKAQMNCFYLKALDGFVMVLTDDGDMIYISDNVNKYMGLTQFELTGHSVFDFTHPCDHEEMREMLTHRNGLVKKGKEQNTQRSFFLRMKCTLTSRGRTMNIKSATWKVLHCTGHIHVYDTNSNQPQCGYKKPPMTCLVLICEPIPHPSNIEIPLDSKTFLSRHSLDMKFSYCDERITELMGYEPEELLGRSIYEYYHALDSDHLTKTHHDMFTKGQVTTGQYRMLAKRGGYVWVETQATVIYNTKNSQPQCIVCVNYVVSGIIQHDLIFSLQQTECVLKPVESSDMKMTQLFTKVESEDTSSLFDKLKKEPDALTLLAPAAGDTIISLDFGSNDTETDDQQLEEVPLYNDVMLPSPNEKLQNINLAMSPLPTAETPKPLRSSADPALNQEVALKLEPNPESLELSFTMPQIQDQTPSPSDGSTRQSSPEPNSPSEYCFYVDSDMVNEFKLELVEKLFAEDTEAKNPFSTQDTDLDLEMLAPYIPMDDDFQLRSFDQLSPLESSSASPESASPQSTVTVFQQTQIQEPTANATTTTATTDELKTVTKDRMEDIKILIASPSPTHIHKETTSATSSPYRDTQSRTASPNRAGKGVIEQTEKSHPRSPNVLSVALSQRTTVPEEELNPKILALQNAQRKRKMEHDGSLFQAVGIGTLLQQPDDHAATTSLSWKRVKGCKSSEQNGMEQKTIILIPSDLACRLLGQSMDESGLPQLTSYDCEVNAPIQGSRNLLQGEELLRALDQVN
Experiment: ATG_HIF1a_CIS: Attagene CIS-FACTORIAL HepG2 Assay for human Hypoxia Inducible Factor 1 (HIF1A) (AID 2282951)
Conditions: HepG2 Attagene cis-factorial HIF1a reporter transcription; actives raise or lower the signal
Procedure: ATG_CIS is a cell-based, multiplexed-readout assay that uses HepG2, a human liver cell line, with measurements taken at 24 hours after chemical dosing in a 24-well plate.ATG_HIF1a_CIS is one of 52 assay component(s) measured or calculated from the ATG_CIS assay. […] This assay endpoint, ATG_HIF1a_CIS, was analyzed with bidirectional fitting relative to DMSO as the negative control and baseline of activity. […]
Activity calls are given as the source filed them. Rule for the calls: active = hit-call score of the fitted dose curve at least 0.9, where 1 is the maximum; inactive = score below 0.9.
One label from this list, please: yes = active, no = inactive

## Task Tell me the assay call for S=P(N1CC1)(N1CC1)N1CC1 please.
## Result no

## Task Tell me the assay call for CCn1nc(C)c2c1C(=O)NCC(c1ccc(O)cc1)=N2 please.
## Result no

## Task # fetch the recorded call for COc1cc(C(C)C)c2c(c1)S(=O)(=O)N(COc1cc(=O)n3cccc(OCCN4CCCCC4)c3n1)C2=O here
## Result yes

## Task Which outcome was assigned to CCCCOC(=O)c1ccccc1 in this test?
## Result no

## Task Test call, this compound: CCCC(CCC)C(=O)O
## Result no

## Task Record request — test call for OCCNCCO
## Result no

## Task Call for entry Cc1nccn1-c1ccc(Sc2cccc(C3(C(N)=O)CCOCC3)c2)cc1 :
## Result no

## Task Returns: the outcome recorded for Cc1ncc([C@@H](CCCCCCc2ccc3c(n2)NCCC3)CC(=O)O)cn1 in this assay.
## Result no

## Task // return assay outcome for CCCCCCCC1CCC(=O)O1 (centres undefined)
## Result no

## Task Could you check what this test reported for Cc1cccc(O)c1C ?
## Result no

## Task In this assay, the call recorded for CCOC(N)=O was what?
## Result no

## Task Called result for CCCCCCCC/C=C\CCCCCCCC(=O)OC[C@@H](O)[C@H]1OC[C@H](O)[C@H]1O
## Result no

## Task Record request — test call for C[C@]12C=CC(=O)C=C1CC[C@H]1[C@@H]3C[C@@H](O)[C@](O)(C(=O)CO)[C@@]3(C)C[C@H](O)[C@@]12F
## Result no

## Task # outcome recorded in this test, key = CCCc1ccccc1
## Result yes

* * *

read-out: Cyclin D1 (CCND1), CCND1 (gene 595); assay: LTEA_HepaRG_CCND1: Life Technologies and Expression Analysis (LTEA) Assay for Cyclin D1 (CCND1) using HepaRG (AID 2283451); details: mRNA level, 48 h; actives raise or lower the signal
Calls of active or inactive are those of the source. The calls were made as follows: active = hit-call score of the fitted dose curve at least 0.9, where 1 is the maximum; inactive = score below 0.9.
attributeMeasured: outcome

Illustrative cases are given below, each with its answer.
# compound, outcome
rows = [
    ("O=C(O)c1cccc(C(=O)O)c1", "inactive"),
    ("CC[C@H](C)C(=O)O[C@H]1C[C@H](O)C=C2C=C[C@H](C)[C@H](CC[C@@H](O)C[C@@H](O)CC(=O)O)[C@H]21", "inactive"),
    ("c1ccc2ncccc2c1", "inactive"),
    ("NC(=O)N(O)[C@@H]1COc2cc(OCc3ccccc3)ccc21", "inactive"),
    ("CCCCCCCCN(C)C", "inactive"),
    ("CNC(C)=O", "inactive"),
]

## Task Consider the compound c1ccc2cc3ccccc3cc2c1 . State its measured outcome.
## Result inactive

## Task Return value of outcome for input CCCCCCCC1CCC(=O)O1 (centres undefined) , no commentary.
## Result inactive

## Task Could you please provide reported outcome for C[C@]12C=CC(=O)C=C1CC[C@H]1[C@@H]3C[C@@H](O)[C@](O)(C(=O)CO)[C@@]3(C)C[C@H](O)[C@@]12F ? Thanks!
## Result inactive
